Reported melting point values are given for each entry in this list.

Before answering, review these 4 worked examples.
compound=CC1=NCCSC1=NOC(=O)N(C)C assayvalue="64 to 65 °C"
compound=CC(C)(C)OC(=O)CCNC(=O)c1cccc(NC(=O)c2csc(NC(=O)NCc3ccccc3)n2)c1 assayvalue="212 °C"
compound=Cn1nc(COc2ccc(CCCC#N)cc2)nc1-c1ccccc1 assayvalue="106 to 107 °C"
compound=COc1ccc(Cl)cc1[C@]1(F)C(=O)N(C(=O)NC(C)(C)C(=O)OC(C)(C)C)c2cc(C(F)(F)F)ccc21 assayvalue="57 to 60 °C"

Prompt: Identify the reported melting point for the following entry. COCCO[C@@H]1c2ccc3c(nc(C4CC4)n3C)c2O[C@H](c2ccccc2)[C@H]1O
Completion: 133 °C

Prompt: Identify the reported melting point for the following entry. Fc1cccc(F)c1COc1cccnc1NC(=S)Nc1ccc(Cl)cc1
Completion: 151 to 154 °C

Prompt: Identify the reported melting point for the following entry. N#Cc1cc(C(=O)NN2CCOCC2)ccc1O
Completion: 238 to 240 °C

Prompt: Identify the reported melting point for the following entry. CCCC1=C(C(=O)OCC)C(c2ccccc2N)c2c[nH]nc2N1 (stereo not given)
Completion: 179 °C

Prompt: Identify the reported melting point for the following entry. COC(=O)c1cc(C=O)c(C(F)(F)F)cc1NC(C)=O
Completion: 106 to 108 °C

Prompt: Identify the reported melting point for the following entry. NC(=O)C1(c2ccc(C#Cc3ccccc3)cc2)CC1
Completion: 174 to 176 °C

* * *

measuredQuantity: melting point

compound=O=c1[nH][nH]c2c1c(O)nc1cc(Cl)ccc12 measuredquantity="melting point" assayvalue="> 350 °C"
compound="Nc1cc(N2CC(COCc3ccccc3)OC2=O)ccn1 (stereo not given)" measuredquantity="melting point" assayvalue="122 to 123 °C"
compound=Nc1cc(-n2cccc2)ccc1Nc1cccc(-c2ccccn2)c1 measuredquantity="melting point" assayvalue="135 to 140 °C"
compound=CCCN(CCC)Cc1nnc(-c2ncn3c2CN(C)C(=O)c2c-3ccc(F)c2Cl)o1 measuredquantity="melting point" assayvalue="128 to 130 °C"
compound=Cc1cc(SCc2ccccc2)ccn1 measuredquantity="melting point" assayvalue="69 to 70 °C"
compound=CCC(CC)c1nn(-c2ccc(Cl)cn2)cc1CCCOc1c(C)cccc1CC(=O)O measuredquantity="melting point" assayvalue="106 to 107 °C"

Prompt: Identify the reported melting point for the following entry. NS(=O)(=O)c1ccc(NC(=O)CCl)cc1Cl
Completion: 214 to 216 °C

Prompt: Identify the reported melting point for the following entry. CNCC1COC2(CCN(c3nc4c(cc3F)C=C(C(=O)O)CN4c3ccc(F)cc3F)CC2)O1 (stereo not given)
Completion: 188 to 193 °C

Prompt: Identify the reported melting point for the following entry. Cc1cc(C)c2c(-c3cc(C(C)(C)C)c(O)c(C(C)(C)C)c3)n[nH]c2n1
Completion: 257 to 258 °C

Prompt: Identify the reported melting point for the following entry. CC(CCC(=O)OCc1ccccc1)C1CC=C2C3=C(CCC21C)C1(C)CCC(O)C(C)(C)C1CC3 (stereo not given)
Completion: 118 to 119 °C

* * *

measuredQuantity: melting point

compound=Cn1ncc(C(N)=O)c1-c1ccco1 assayvalue="116 °C"

Prompt: Identify the reported melting point for the following entry. CCOC(=O)C1COc2ccc(NC(C)=O)cc2O1 (stereo not drawn)
Completion: 138 to 140 °C

Prompt: Identify the reported melting point for the following entry. CCN1CCCC1CNC(=O)Cc1ccc(-c2ccc3c(=O)c(-c4ncc[nH]4)c(N)n(CC)c3n2)cc1F (stereo not drawn)
Completion: 100 °C

Prompt: Identify the reported melting point for the following entry. CC(C)Oc1ccc2c(n1)C(C(=O)c1cccs1)C(=O)N2C(N)=O (stereo not drawn)
Completion: 194 to 196 °C

Prompt: Identify the reported melting point for the following entry. CCCCCCCCCc1ccc(C(=O)CC(=O)C(=O)OC)cc1
Completion: 52 to 53.5 °C

Prompt: Identify the reported melting point for the following entry. O=C(O)COc1cccc2c1Cc1sc(SCc3ccccc3)nc1-2
Completion: 166 to 169 °C

Prompt: Identify the reported melting point for the following entry. CC1=C(c2ccc(CC(C)NCC(O)c3cccc(Cl)c3)cc2)CCC(=O)N1 (stereo not drawn)
Completion: 103 to 106 °C

* * *

Reported melting point values are given for each entry in this list.

Before answering, review these 4 worked examples.
compound=N#CSc1nc(C(F)(F)C(F)F)nc2ccccc12 measuredquantity="melting point" assayvalue="112 to 114 °C"
compound=CN1CCN(C2=Nc3ccccc3Cn3cccc32)CC1 measuredquantity="melting point" assayvalue="139 to 141 °C"
compound=Nc1nnc(-c2ccc3occ(-c4ccc(OC(F)(F)F)cc4)c3c2)o1 measuredquantity="melting point" assayvalue="223 to 224 °C"
compound=COC(=O)CCOc1ccc(C=O)cc1 measuredquantity="melting point" assayvalue="48 to 50 °C"

Prompt: Identify the reported melting point for the following entry. CC(C)CCC(=O)N1CCN(C(=O)OC(C)(C)C)CC1
Completion: 88 to 90.2 °C

Prompt: Identify the reported melting point for the following entry. C(#Cc1cnc2ccccc2c1)CCN1CCN(c2ccccn2)CC1
Completion: 76.5 to 77 °C

Prompt: Identify the reported melting point for the following entry. Cc1ccc(S(=O)(=O)N(C)c2ccc(O)cc2)cc1[N+](=O)[O-]
Completion: 173 to 174 °C

Prompt: Identify the reported melting point for the following entry. OCC1=Cc2cc3ccccc3n2CC1
Completion: 139 to 142 °C

Prompt: Identify the reported melting point for the following entry. CCCc1nc2c(N)nc3cc(OCCCCCCNC(=O)c4ccc(N=[N+]=[N-])cc4O)ccc3c2s1
Completion: 127 to 128 °C

Prompt: Identify the reported melting point for the following entry. CCOC(=O)COn1c2c([nH]c(=O)c1=O)CCC1=C2C=C(n2c(C)ccc2C)CC1
Completion: 157 to 158 °C

Prompt: Identify the reported melting point for the following entry. COc1cc(Nc2nccc(-c3sc(NCCc4ccccc4)nc3C)n2)cc(OC)c1
Completion: 201 to 202 °C

Prompt: Identify the reported melting point for the following entry. O=C(O)c1cn(C2CC2)c2cc(N3CCC(c4ccncc4)C3)c(F)cc2c1=O (stereo not given)
Completion: 260 to 261 °C

Prompt: Identify the reported melting point for the following entry. Cc1c(F)c(N2CCC(N)C2)c(F)c2c1c(=O)c(C(=O)O)cn2C1CC1 (stereo not given)
Completion: > 300 °C

Prompt: Identify the reported melting point for the following entry. O=Cc1cccc(OC(=O)C(=O)Oc2cccc(C=O)c2)c1
Completion: 163 to 166 °C

Prompt: Identify the reported melting point for the following entry. Cc1oc(C=Cc2ccc(Cl)cc2)nc1CC(=O)O
Completion: 157 to 158 °C

Prompt: Identify the reported melting point for the following entry. Cc1nc2ccccc2c(=O)n1CCCl
Completion: 114 to 116 °C

Prompt: Identify the reported melting point for the following entry. CSC(SC)C1(O)O[C@H](COCc2ccccc2)[C@@H](OCc2ccccc2)[C@H](OCc2ccccc2)[C@H]1OCc1ccccc1 (stereo not given in full)
Completion: 96 to 97 °C

Prompt: Identify the reported melting point for the following entry. Cc1cccc(COc2nn3c(-c4ccccc4)nnc3cc2C23CCC(CC2)C3)n1
Completion: 162 to 164 °C

Prompt: Identify the reported melting point for the following entry. COC(=O)c1ccc(Cn2c(=O)c(-c3c(Cl)cccc3Cl)cc3cnc(N)nc32)cc1
Completion: 235 to 237 °C

Prompt: Identify the reported melting point for the following entry. COc1ccc(-n2nc(CO)cc2-c2ccc(C)cc2)cc1
Completion: 100 to 102 °C

* * *

measuredQuantity: melting point

molecule=CCOC(=O)CCCCCn1c(=O)[nH]c2ccccc2c1=O measuredquantity="melting point" assayvalue="103 to 104 °C"

Prompt: Identify the reported melting point for the following entry. O=C(Cc1cccnc1)[N+]1([O-])CCC(C2c3ccc(Cl)cc3CCc3cccnc32)CC1 (stereo not drawn)
Completion: 117 to 118 °C

Prompt: Identify the reported melting point for the following entry. CSc1ccc(-c2n[nH]c(=O)cc2-c2ccccc2)cc1
Completion: 186 °C

Prompt: Identify the reported melting point for the following entry. COc1cc2cc(Br)c(C)cc2c(C(C)C)c1OC
Completion: 62 to 63 °C

Prompt: Identify the reported melting point for the following entry. O=C1N(Cc2ccccn2)c2cccnc2C12COc1cc3c(cc12)OCCO3 (stereo not drawn)
Completion: 146 to 147 °C

Prompt: Identify the reported melting point for the following entry. CC(C)(C)OC(=O)Cc1nc(Sc2ccccc2)ccc1[N+](=O)[O-]
Completion: 104 to 107 °C

Prompt: Identify the reported melting point for the following entry. COc1ccc2c(c1OCc1ccccc1)CCCC2=O
Completion: 64 °C

Prompt: Identify the reported melting point for the following entry. COc1ccc(-c2cc(C(C)(C)CC(C)(C)C)cc(-n3nc4ccc(C(F)(F)F)cc4n3)c2O)cc1
Completion: 99 to 102 °C
